- Target entity: T1, mouse programmed cell death protein 1 Fc fusion protein (mPD-1-Fc), mPD-1 C60S (aa 25-167) (Mus musculus, UniProt Q02242, stabilised)
- T1 construct: not cleaved; source: Expi293F, purified (Protein A, SEC; dimeric fraction); not shown: Fc (human), C-terminal, kept
- Test name: SPR; Carterra LSA; Fab from the ammonium sulfate precipitate of the culture supernatant immobilised on a NiHC200M chip; hPD-1 (1-1024 nM) or mPD-1-Fc (4-1024 nM) as analyte, fourfold dilution series, no regeneration; HBS-EP pH 7.4, 25 °C; medians over the spots of a construct, KD = koff/kon
- Experimental setup: one partner purified
Readout name: kon (M⁻¹ s⁻¹)
Reply numerically in M⁻¹ s⁻¹, unit not repeated.

Worked cases, answers included:
INSERT INTO results (binder, readout_name, endpoint_value) VALUES
  ('toripalimab Fab L.L101T (Fab, V domains shown, as the heavy chain of Sm3; light chain of Sm3 with this change; numbers count from the chain''s first residue; source: Brevibacillus, culture supernatant (ammonium sulfate precipitate); not shown: 6xHis, C-terminal, kept; 6xHN, C-terminal, kept) VH: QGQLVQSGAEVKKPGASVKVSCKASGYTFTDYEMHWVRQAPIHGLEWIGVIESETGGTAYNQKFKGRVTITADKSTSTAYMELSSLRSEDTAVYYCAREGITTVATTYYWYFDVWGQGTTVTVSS VL: DVVMTQSPLSLPVTLGQPASISCRSSQSIVHSNGNTYLEWYLQKPGQSPQLLIYKVSNRFSGVPDRFSGSGSGTDFTLKISRVEAEDVGVYYCFQGSHVPTTFGQGTKLEIK', 'kon', 20400),
  ('toripalimab Fab L.V99M (Fab, V domains shown, as the heavy chain of Sm3; light chain of Sm3 with this change; numbers count from the chain''s first residue; source: Brevibacillus, culture supernatant (ammonium sulfate precipitate); not shown: 6xHis, C-terminal, kept; 6xHN, C-terminal, kept) VH: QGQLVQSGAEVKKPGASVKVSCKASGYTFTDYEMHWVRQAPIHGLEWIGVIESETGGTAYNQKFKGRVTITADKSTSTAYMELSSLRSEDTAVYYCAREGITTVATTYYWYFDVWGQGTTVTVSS VL: DVVMTQSPLSLPVTLGQPASISCRSSQSIVHSNGNTYLEWYLQKPGQSPQLLIYKVSNRFSGVPDRFSGSGSGTDFTLKISRVEAEDVGVYYCFQGSHMPLTFGQGTKLEIK', 'kon', 11900),
  ('toripalimab Fab L.S25Y (Fab, V domains shown, as the heavy chain of Sm3; light chain of Sm3 with this change; numbers count from the chain''s first residue; source: Brevibacillus, culture supernatant (ammonium sulfate precipitate); not shown: 6xHis, C-terminal, kept; 6xHN, C-terminal, kept) VH: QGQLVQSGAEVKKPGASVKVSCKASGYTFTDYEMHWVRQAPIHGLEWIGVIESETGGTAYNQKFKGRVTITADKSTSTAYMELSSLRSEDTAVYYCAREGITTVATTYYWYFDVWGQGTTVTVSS VL: DVVMTQSPLSLPVTLGQPASISCRYSQSIVHSNGNTYLEWYLQKPGQSPQLLIYKVSNRFSGVPDRFSGSGSGTDFTLKISRVEAEDVGVYYCFQGSHVPLTFGQGTKLEIK', 'kon', 32900),
  ('toripalimab Fab L.Q27A (Fab, V domains shown, as the heavy chain of Sm3; light chain of Sm3 with this change; numbers count from the chain''s first residue; source: Brevibacillus, culture supernatant (ammonium sulfate precipitate); not shown: 6xHis, C-terminal, kept; 6xHN, C-terminal, kept) VH: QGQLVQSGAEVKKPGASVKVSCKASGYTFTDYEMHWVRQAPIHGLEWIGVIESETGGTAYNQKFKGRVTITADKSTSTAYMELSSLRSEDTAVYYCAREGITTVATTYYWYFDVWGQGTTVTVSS VL: DVVMTQSPLSLPVTLGQPASISCRSSASIVHSNGNTYLEWYLQKPGQSPQLLIYKVSNRFSGVPDRFSGSGSGTDFTLKISRVEAEDVGVYYCFQGSHVPLTFGQGTKLEIK', 'kon', 40100);

Record summary for toripalimab Fab L.P100S (Fab, V domains shown, as the heavy chain of Sm3; light chain of Sm3 with this change; numbers count from the chain's first residue; source: Brevibacillus, culture supernatant (ammonium sulfate precipitate); not shown: 6xHis, C-terminal, kept; 6xHN, C-terminal, kept) VH: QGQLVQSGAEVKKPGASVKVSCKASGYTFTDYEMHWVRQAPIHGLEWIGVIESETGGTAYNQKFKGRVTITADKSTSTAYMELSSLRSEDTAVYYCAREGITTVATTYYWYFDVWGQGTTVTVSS VL: DVVMTQSPLSLPVTLGQPASISCRSSQSIVHSNGNTYLEWYLQKPGQSPQLLIYKVSNRFSGVPDRFSGSGSGTDFTLKISRVEAEDVGVYYCFQGSHVSLTFGQGTKLEIK : reported kon = 22900

Where do these numbers come from? They come from paper PMC10663500.
